# System: CP256
# measurement.description: qHTS profiling for inhibitors of Plasmodium falciparum proliferation (AID 504749); further: nearly all actives have a fitted effect of over 60% in size
# experimental.parameters: P. falciparum in erythrocytes, SYBR Green DNA, 72 h; series mostly up to 28.7 µM
Results filed as inconclusive are left out. Activity calls are given as the source filed them. The call rests on the fitted dose curve; in most records, active means well fitted inhibition curve with a large enough effect; inconclusive means small, poorly fitted or top-dose-only effect; inactive means flat fitted curve, though single readings scatter.
reported.metric: outcome

[[record]]
smiles_representation = "O=C(O)CCC(=O)O"
assay_result = "inactive"

[[record]]
smiles_representation = "O=C1c2ccccc2S(=O)(=O)N1CCCCN1CCN(c2ncccn2)CC1"
assay_result = "inactive"

[[record]]
smiles_representation = "O=C(/C=C/c1ccccc1)OCc1ccccc1"
assay_result = "inactive"

[[record]]
smiles_representation = "C[N+](C)(C)CC[N+]1(C)Cc2c(Cl)c(Cl)c(Cl)c(Cl)c2C1"
assay_result = "inactive"

[[record]]
smiles_representation = "COc1ccc(C(=O)N2CCN(CC(=O)N3CCOCC3)CC2)cc1"
assay_result = "inactive"


Request: Sample O=C(NCN1CCOCC1)c1cnccn1 — what was its outcome?
Result: inactive

Request: Sample CC[N+](CC)(CC(=O)Nc1c(C)cccc1C)Cc1ccccc1 — what was its outcome?
Result: inactive

Request: Sample COC(=O)c1cccnc1 — what was its outcome?
Result: inactive

Request: Sample Cn1c([N+](=O)[O-])cnc1COC(N)=O — what was its outcome?
Result: inactive

Request: Sample Nc1ccc(C(=O)Oc2ccccc2)c(O)c1 — what was its outcome?
Result: inactive

Request: Sample CC(C)=CCC/C(C)=C/CO — what was its outcome?
Result: inactive

Request: Sample O=C(NCCCN1CCOCC1)c1ccc(Cl)cc1 — what was its outcome?
Result: inactive

Request: Sample NC(N)=NCCN1CCCCCCC1 — what was its outcome?
Result: inactive

Request: Sample OC[C@@H](O)[C@@H](O)[C@H](O)[C@H](O)CO — what was its outcome?
Result: inactive

Request: Sample CN1CCN(C(=O)C2CCCCC2)CC1 — what was its outcome?
Result: inactive
